Where do these numbers come from? They come from patent US20250066864A1.

# test_target: ADAR1p110 (Homo sapiens, UniProt P55265)
# Construct: HAT (N); FLAG (alternative preparation, not on the same molecule as HAT) (N); made in house; host or cells: Sf9 insect cells, baculovirus
# Sequence (P55265 1-931 isoform P55265-5): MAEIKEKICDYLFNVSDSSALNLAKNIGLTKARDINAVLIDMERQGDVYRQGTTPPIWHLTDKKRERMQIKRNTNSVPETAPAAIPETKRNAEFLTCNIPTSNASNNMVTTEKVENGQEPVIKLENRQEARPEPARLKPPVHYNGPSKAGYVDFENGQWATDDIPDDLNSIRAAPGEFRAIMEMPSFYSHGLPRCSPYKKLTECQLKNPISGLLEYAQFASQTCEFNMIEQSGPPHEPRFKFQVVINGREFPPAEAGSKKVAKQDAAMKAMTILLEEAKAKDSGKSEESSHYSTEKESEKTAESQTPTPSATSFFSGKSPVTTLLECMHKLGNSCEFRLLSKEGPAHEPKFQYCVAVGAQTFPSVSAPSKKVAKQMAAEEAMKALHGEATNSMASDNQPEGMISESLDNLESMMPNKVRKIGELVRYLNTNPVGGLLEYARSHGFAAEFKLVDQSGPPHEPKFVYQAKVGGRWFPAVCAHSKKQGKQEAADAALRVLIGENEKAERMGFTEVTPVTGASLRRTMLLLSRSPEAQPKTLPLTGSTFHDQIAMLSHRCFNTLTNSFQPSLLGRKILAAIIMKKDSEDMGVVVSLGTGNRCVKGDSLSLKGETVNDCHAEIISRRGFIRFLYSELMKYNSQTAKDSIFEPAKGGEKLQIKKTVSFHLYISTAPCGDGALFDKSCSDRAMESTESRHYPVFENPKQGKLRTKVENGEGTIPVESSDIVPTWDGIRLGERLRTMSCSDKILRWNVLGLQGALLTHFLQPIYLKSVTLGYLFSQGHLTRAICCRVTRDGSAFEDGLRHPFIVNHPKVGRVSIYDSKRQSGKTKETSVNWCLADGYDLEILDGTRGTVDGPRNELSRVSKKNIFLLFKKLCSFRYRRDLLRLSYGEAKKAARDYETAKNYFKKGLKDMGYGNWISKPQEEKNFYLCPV
# assay_procedure: in vitro editing assay with recombinant ADAR1p110 and dsRNA or DNA:RNA substrates
# Type: biochemical
# assay_conditions: mismatched dsRNA substrate; read-out: IC50 estimated by in vitro editing assay, RNA:mmRNA
outcome_measure: IC50
Include the unit right after the number.

Task: Given `COc1cc(C2=NNC(=O)CC2)cc(OC)c1OC` , respond with its IC50.
Result: 27.2 µM

Task: Given `NC(=NOC(=O)c1ccc([N+](=O)[O-])o1)c1ccc(OCc2ccc(Cl)cc2)c(Cl)c1` , respond with its IC50.
Result: 33 µM

Task: Given `Cc1cc(C)n(-c2ccc(N3CCSCC3)nn2)n1` , respond with its IC50.
Result: 46 µM
